The compounds listed here are annotated with their Mean value KO.
# targetOfAssay: UniProtKB Q9JJL3
# Sequence (Q9JJL3 whole entry): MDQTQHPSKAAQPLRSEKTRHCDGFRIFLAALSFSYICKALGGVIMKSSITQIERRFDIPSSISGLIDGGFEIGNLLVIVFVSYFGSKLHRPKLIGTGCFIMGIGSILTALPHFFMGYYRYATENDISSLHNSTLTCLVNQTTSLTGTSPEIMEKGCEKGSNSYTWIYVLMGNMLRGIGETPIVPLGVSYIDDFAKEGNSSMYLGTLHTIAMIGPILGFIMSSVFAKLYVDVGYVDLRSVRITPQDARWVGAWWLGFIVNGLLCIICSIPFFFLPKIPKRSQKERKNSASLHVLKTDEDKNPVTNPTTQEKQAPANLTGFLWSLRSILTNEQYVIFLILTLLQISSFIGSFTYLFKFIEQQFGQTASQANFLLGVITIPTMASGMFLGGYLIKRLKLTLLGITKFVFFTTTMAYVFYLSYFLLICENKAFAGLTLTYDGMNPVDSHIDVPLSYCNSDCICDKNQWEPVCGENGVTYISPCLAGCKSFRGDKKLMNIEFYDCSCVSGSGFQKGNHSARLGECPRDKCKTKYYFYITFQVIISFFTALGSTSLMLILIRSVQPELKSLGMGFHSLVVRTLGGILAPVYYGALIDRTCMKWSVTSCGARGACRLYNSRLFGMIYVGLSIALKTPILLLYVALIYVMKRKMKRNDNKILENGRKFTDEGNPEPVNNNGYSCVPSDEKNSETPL
# experimentDescription: Untargeted metabolomics of plasma from untreated wild-type and Oatp1b2(−/−) mice
# testParameters: plasma of untreated Oatp1b2-deficient mice; raw area counts rescaled to median = 1
Structures can show the parent of a compound that is named as a salt.
Respond numerically, and do not add a unit to the figure.

{"compound": "CC(O)(CCO)CC(=O)O (stereo not drawn) [mevalonate]", "Mean value KO": 1.15}
{"compound": "CC/C=C\\C/C=C\\C/C=C\\C/C=C\\C/C=C\\C/C=C\\CCC(=O)O[C@H](COC(=O)CCCCCCC/C=C\\CCCCCCCC)COP(=O)([O-])OCC[N+](C)(C)C", "Mean value KO": 1.17}
{"compound": "CCCCCCCC/C=C\\CCCCCCCC(=O)OC[C@@H](O)COP(=O)([O-])OCC[N+](C)(C)C [1-oleoyl-GPC (18:1)]", "Mean value KO": 1.30}
{"compound": "O=C(O)CCCCCCCCCCCCCCC(=O)O [hexadecanedioate (C16-DC)]", "Mean value KO": 1.57}
{"compound": "O=C(O)CCCCCCCCCCCCCCCCCC(=O)O [nonadecanedioate (C19-DC)]", "Mean value KO": 1.30}
{"compound": "CCCCC/C=C\\C/C=C\\C/C=C\\C/C=C\\CCCC(=O)O[C@H](COC(=O)CCCCCCC/C=C\\C/C=C\\CCCCC)COP(=O)([O-])OCC[N+](C)(C)C", "Mean value KO": 1.15}
{"compound": "CC(C)CCC[C@@H](C)[C@H]1CC[C@H]2[C@@H]3CC=C4C[C@@H](OS(=O)(=O)O)CC[C@]4(C)[C@H]3CC[C@]12C [cholesterol sulfate]", "Mean value KO": 1.08}
{"compound": "CCCCCCCC/C=C\\CCCCCCCC(=O)O[C@H](CO/C=C\\CCCCCCCCCCCCCC)COP(=O)(O)OCCN", "Mean value KO": 1.18}

Would you kindly look at the next entry?
Query block: Need Mean value KO, item CCCCCCCC(=O)O[C@H](CC(=O)O)C[N+](C)(C)C [octanoylcarnitine (C8)]
Result block: 1.47
